This collection of values is drawn from patent US9434725B2.

assay target: PIM1 (Homo sapiens (Human), UniProt P11309)
Sequence (P11309 whole entry): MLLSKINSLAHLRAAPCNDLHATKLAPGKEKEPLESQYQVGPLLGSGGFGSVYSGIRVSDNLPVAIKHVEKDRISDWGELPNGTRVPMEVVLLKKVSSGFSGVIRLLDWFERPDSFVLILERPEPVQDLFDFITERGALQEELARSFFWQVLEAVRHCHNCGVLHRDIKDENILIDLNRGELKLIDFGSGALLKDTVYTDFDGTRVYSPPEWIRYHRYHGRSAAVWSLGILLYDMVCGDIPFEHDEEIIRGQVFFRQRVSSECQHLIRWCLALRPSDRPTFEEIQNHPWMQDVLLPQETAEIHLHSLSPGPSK
measurement protocol: biochemical
Type: biochemical
run conditions: 10 μM ATP, 90 min, room temperature; read-out: PIM1 LC3K (KI)
pKi: −log10 of the molar value.
Reported pKi values are given for each entry in this list.

molecule: c1cc(N2CCCNCC2)nc(-n2ncc3cnc(-c4cnn(CC5CC5)c4)cc32)c1
pKi: 8.73
//
molecule: Cc1cncc(-c2cc3c(cn2)cnn3-c2cccc(N3CCC[C@H](N)C3)n2)n1
pKi: 9.80
//
molecule: Cc1cncc(-c2cc3c(cn2)cnn3-c2cccc(C3(F)CCCNC3)n2)n1 (stereo not drawn)
pKi: 9.29
//
molecule: Cc1cncc(-c2cc3c(cn2)cnn3-c2ccc(C#N)c(N3CCC[C@H](N)C3)n2)n1
pKi: 10.17
//
molecule: CCn1cc(-c2cc3c(cn2)cnn3-c2cccc(N3CCN[C@@H](C)C3)n2)cn1
pKi: 9.46
//
molecule: CCc1cncc(-c2cc3c(cn2)cnn3-c2ccc(Cl)c(N3CCC[C@H](N)C3)n2)c1
pKi: 9.85
